Tested on: HL-60(TB) leukemia
Test: NCI-60 one-dose screen, 48 h
Details: 10 µM unless noted
Compounds without any hit were thinned out: in the full panel of roughly 83,000, 20% have a hit. Calls of active or inactive are those of the source. How the source made its calls: active means growth percent below 10; inactive means the rest.
A correct response names exactly one class from 1 (yes) for active, 0 (no) for inactive

Example cases with answers are listed next.
O=C(Nc1ccc(Cl)cc1F)c1cc(Br)ccc1O : 1 (yes)
COc1ccc(-c2cc(-c3ccc(Cl)cc3)c(C#N)c(=O)n2CCCCC(=O)NO)cc1 : 0 (no)
O=C1C=CC(=O)N1c1cccc2c1CCCC2 : 0 (no)

Hi team, can someone confirm the assay call for `Cc1[nH]c(C(=O)Nc2ccc(C(N)=O)cc2OC(C)C)c(Cl)c1Cl` ?
0 (no)

Hi team, can someone confirm the assay call for `Cc1ccc(-c2c3c(N)nc(-c4cccnc4)nc3nc3c2c(C)nn3-c2ccccc2)cc1` ?
0 (no)

Hi team, can someone confirm the assay call for `O=[N+]([O-])c1ccc(N=Nc2ccccc2)cc1` ?
0 (no)

Hi team, can someone confirm the assay call for `O=C(N/N=C/c1ccccc1O)C(=O)Nc1ccc(F)cc1` ?
0 (no)

Hi team, can someone confirm the assay call for `Cc1ccc(Cc2cnc(NC(=O)/C=C/c3ccc(C)o3)s2)cc1` ?
1 (yes)

Hi team, can someone confirm the assay call for `COCCn1cc(-c2nc(-c3cc4cccnc4n3C)cs2)c2ccccc21` ?
0 (no)

Hi team, can someone confirm the assay call for `COC(=O)c1ccc(C)cc1` ?
0 (no)

Hi team, can someone confirm the assay call for `Cc1ccc(C(=O)c2ccc(CC(=O)N/N=C/c3ccccc3O)n2C)cc1` ?
0 (no)

Hi team, can someone confirm the assay call for COc1cccc2c1C(=O)c1c(O)c3c(c(O)c1C2=O)C[C@@](O)(/C(C)=N/NC(=O)c1cccc([N+](=O)[O-])c1)C[C@@H]3OC1CC(N)C(O)C(C)O1 (stereo partly specified) ?
1 (yes)

Hi team, can someone confirm the assay call for `CC[n+]1ccc(Nc2ccc(NC(=O)c3ccc(Nc4cc[n+](CC)c5ccc([N+](=O)[O-])cc45)cc3)cc2)cc1` ?
0 (no)

Hi team, can someone confirm the assay call for `N#Cc1c(N2CCNCC2)nc2sc3cc(Cl)c(Cl)cc3n2c1=N` ?
0 (no)

Hi team, can someone confirm the assay call for CCC(C)C(N)C(=O)NNc1n[nH]c(=S)n1N (stereo unspecified) ?
0 (no)

Hi team, can someone confirm the assay call for `CC1(C)CC2(CC(C)(C)c3cc(O)c(O)cc32)c2cc(O)c(O)cc21` ?
0 (no)

Hi team, can someone confirm the assay call for `COc1ccc(-c2nc3ccccn3c2/C=C/C(=O)c2cc(OC)c(OC)c(OC)c2)cc1OC` ?
1 (yes)

Hi team, can someone confirm the assay call for `CCCn1c2cc(OCc3cn(-c4ccc(Br)cc4)nn3)ccc2c2ccnc(C)c21` ?
1 (yes)

Hi team, can someone confirm the assay call for `O=C(/C=C1\C(=O)N(Cc2ccccc2)c2ccccc21)c1ccc(OCCN2CCCCC2)cc1` ?
1 (yes)

Hi team, can someone confirm the assay call for `C[C@]12CC[C@@H]3c4cc(OC(F)F)c(OS(N)(=O)=O)cc4CC[C@H]3[C@@H]1CC[C@@H]2O` ?
1 (yes)

Hi team, can someone confirm the assay call for `C=C1C(=O)O[C@H]2[C@H]1CC/C(C(=O)NCCCCCCCCNC(=O)/C1=C/CC[C@@]3(C)O[C@H]3[C@H]3OC(=O)C(=C)[C@@H]3CC1)=C\CC[C@@]1(C)O[C@@H]21` ?
1 (yes)
